Cited source: paper PMC2820545

- Tested on: Wildtype HBV
- run_description: HBV cell culture susceptibility (HBV-transfected HepG2 cells)
- Assay type: cell-based
- test_settings: Hepatitis B virus, panel of 76 wildtype isolates, read-out: average ETV EC50
property_name: pEC50
Please note pEC50 is a logarithmic value: minus log10 of concentration in mol/L. Answer with that number alone.

Could you share which pEC50 value was measured for C=C1[C@H](CO)[C@@H](O)C[C@@H]1n1cnc2c(=O)[nH]c(N)nc21 ?
8.47

###

- target_entity: Wildtype HBV polymerase (Hepatitis B virus genotype D subtype ayw, UniProt P03156)
- Construct: intracellular HBV nucleocapsids were isolated from HBV transfected HepG2 cells and used in endogenous polymerase assays
- Sequence (P03156 whole entry): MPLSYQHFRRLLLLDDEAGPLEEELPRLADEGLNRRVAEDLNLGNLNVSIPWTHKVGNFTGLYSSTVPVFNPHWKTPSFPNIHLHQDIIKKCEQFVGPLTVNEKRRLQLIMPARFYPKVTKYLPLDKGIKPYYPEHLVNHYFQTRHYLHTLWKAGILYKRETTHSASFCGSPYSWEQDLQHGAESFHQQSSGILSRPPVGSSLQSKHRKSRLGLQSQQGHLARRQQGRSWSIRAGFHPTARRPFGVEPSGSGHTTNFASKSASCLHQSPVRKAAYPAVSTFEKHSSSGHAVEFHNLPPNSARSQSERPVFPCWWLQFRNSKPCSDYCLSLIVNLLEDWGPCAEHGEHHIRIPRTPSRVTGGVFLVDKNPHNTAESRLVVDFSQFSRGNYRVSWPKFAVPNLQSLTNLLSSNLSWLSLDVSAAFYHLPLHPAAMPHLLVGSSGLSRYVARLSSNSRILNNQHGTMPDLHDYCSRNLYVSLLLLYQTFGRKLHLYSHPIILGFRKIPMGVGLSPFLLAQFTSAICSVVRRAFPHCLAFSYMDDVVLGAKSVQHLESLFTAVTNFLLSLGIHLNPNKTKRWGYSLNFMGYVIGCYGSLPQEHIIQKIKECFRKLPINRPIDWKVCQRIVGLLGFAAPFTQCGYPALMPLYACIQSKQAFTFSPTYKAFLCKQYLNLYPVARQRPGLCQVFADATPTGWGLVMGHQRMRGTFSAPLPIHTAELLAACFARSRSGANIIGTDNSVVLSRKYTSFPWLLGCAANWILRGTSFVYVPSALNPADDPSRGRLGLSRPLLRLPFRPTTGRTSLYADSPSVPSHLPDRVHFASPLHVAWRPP
- run_description: In vitro HBV polymerase assay (endogenous polymerase assay with nucleocapsids)
- test_settings: calculated with Cheng-Prusoff equation; Wildtype (WT) polymerase; read-out: Ki (ETV-TP)
property_name: Ki (nM)
// note: answer is a bare numeric in nM

Under Wildtype HBV polymerase (Hepatitis B virus genotype D subtype ayw, UniProt P03156): Ki value of C=C1[C@H](COP(=O)(O)OP(=O)(O)OP(=O)(O)O)[C@@H](O)C[C@@H]1n1cnc2c(=O)[nH]c(N)nc21 [ETV-TP, ETV-triphosphate] ?
0.4

###

- target_entity: Wildtype HBV polymerase (Hepatitis B virus genotype D subtype ayw, UniProt P03156)
- Construct: intracellular HBV nucleocapsids were isolated from HBV transfected HepG2 cells and used in endogenous polymerase assays; expressed in transfected cells; host or cells: HepG2 cells transfected with pCMV-HBV
- run_description: In vitro HBV polymerase assay (endogenous polymerase assay with nucleocapsids)
- Format: biochemical
- test_settings: In vitro polymerase; Wildtype; read-out: ETV-TP IC50, Average ± SD (Range)
property_name: pIC50
Please report pIC50 as the negative decimal logarithm of the molar concentration, giving only the number.

Provide the documented pIC50 with Wildtype HBV polymerase (Hepatitis B virus genotype D subtype ayw, UniProt P03156) as the system for C=C1[C@H](COP(=O)(O)OP(=O)(O)OP(=O)(O)O)[C@@H](O)C[C@@H]1n1cnc2c(=O)[nH]c(N)nc21 [ETV-TP, ETV-triphosphate]
9.30
